Target: human IL-1β (human, UniProt P01584 117-269)
Assay: cell-based or functional assay
Could you please mark yes (1) for values of IL-1β IC50 below 8 nM and no (0) for values at or above it?

Bench note: check whether ABT2-65/ABT1-122 hu IgG1/K wt (bispecific antibody, V domains shown) VH: EVQLLESGGGLVQPGGSLRLSCAASGFTFEDYQMGWVRQAPGKGLEWVSSISAMGNRTYYADSVKGRFTISRDDSKNTLYLQMNSLRAEDTAVYYCAKNLVRTQSKMWMFDYWGQGTLVTVSS VL: DIQMTQSPSSLSASVGDRVTITCRASQPIWTELNWYQQKPGKAPKLLIYGSSSLQSGVPRFSGSGSGTDFTLTISSLQPEDFATYYCQQFAYFPATFGQGTKVEIKR shows IL-1β IC50 below 8 nM
no (0)

Please let me know if ABT2-65-166/ABT1-95-A3 huIgG1/K wt (bispecific antibody, V domains shown, hu IgG1/K wt; also called 1-95-A3 / 2-65-166) VH: EVQLLESGGGLVQPGGSLRLSCAASGFTFEDYQMGWVRQAPGKGLEWVSSISAMGGRTYYADSVKGRFTISRDNSKNTLYLQMNSLRAEDTAVYYCAQNLVRLGRSRWMFDYWGQGTLVTVSS VL: DIQMTQSPSSLSASVGDRVTITCRASKPGVRNMRWYQQKPGKAPKLLIYSVSYLEPGVPSRFSGSGSGTDFTLTISSLQPEDFATYHCLQGYRWPPTFGQGTKVEIKR shows IL-1β IC50 below 8 nM.
yes (1)

In plain terms, does ABT2-108-620x/ABT1-122-750x huIgG1/K wt (bispecific antibody, V domains shown) VH: EVQLLESGGGLVQPGGSLRLSCAASGFTFAEESWMWVRQAPGKGLEWVSRIGQDGKNTYYREDVKGRFTISRDNSKNTLYLQMNSLRAEDTAVYYCAKYTGRIMGHHLFDYWGQGTLVTVSS VL: DIQMTQSPSSLSASVGDRVAITCSASQHIWTEISWYQQKPGKAPKLLIYGSASRQKGVPSRFSGSGSGTDFTLTISSLQPEDFATYYCKQFAYFPNTFGQGTKVEIKR come in under 8 nM for IL-1β IC50?
yes (1)

Report whether reported IL-1β IC50 is lower than 8 nM (strictly) for ABT2-108/ABT1-141-25 hu IgG1/K wt (bispecific antibody, V domains shown) VH: EVQLLESGGGLVQPGGSLRLSCAASGFTFAEYTMMWVRQAPGKGLEWVSRIGQDGKNTYYADSVKGRFTISRDNSKNTLYLQMNSLRAEDTAVYYCAKYTGRVGVHHLFDYWGQGTLVTSS VL: DIQMTQSPSSLSASVGDRVTITCRASQWIQKQLAWYQQKPGKAPKLLIYSSSYLQSGVPSRFSGSGSGTDFTLTISSLQPEDFATYYCQQHLRVPMTFGQGTKVEIKR
no (0)
